Just for reference, a melting point compilation (Tetko et al.; mined from patent text by program, amines drawn as free bases though some values may be those of a salt) is where these values come from.

- molecule: "N#Cc1ccc(OCCCCOc2ccc(-c3cc4ccc(C#N)cc4o3)cc2)cc1"
  melting point: "187 to 189 °C"
- molecule: "CC(C)Nc1nc2cc(F)c(F)cc2n1[C@H]1O[C@@H](CO)[C@H](O)[C@@H]1O"
  melting point: "156 to 158 °C"
- molecule: "Cc1cnc(Br)c(C#N)c1"
  melting point: "109 to 111 °C"
- molecule: "C=CCCc1sc(-c2nccs2)c2c1C(=O)CC(C)(C)C2"
  melting point: "62 to 65 °C"
- molecule: "NCc1ccc2[nH]ccc2c1"
  melting point: "114 to 115 °C"
- molecule: "Nc1c(Cl)cc(C(O)CNCCCCCOCCCc2ccc(C(=O)O)o2)cc1Cl (stereo unspecified)"
  melting point: "89 to 91 °C"
- molecule: "CC(=O)C1(COC(=O)Oc2ccccc2)CC2C=CC1CC2 (stereo unspecified)"
  melting point: "58 to 60 °C"
- molecule: "Fc1ccc(Cn2c(OC3CCNCC3)nc3cncnc32)cc1"
  melting point: "79.3 °C"
- molecule: "CCOCC(C)Oc1ccc(COc2cnn(C(C)(C)C)c(=O)c2Cl)cc1 (stereo unspecified)"
  melting point: "72.3 to 73.1 °C"
- molecule: "O=C(O)C1CC(=O)N(c2ccccc2)C1c1cccnc1 (stereo unspecified)"
  melting point: "229 to 232 °C"
- molecule: "CC(C)(C)c1cc(-c2csc(CNC(=O)Cc3ccccc3)n2)cc(C(C)(C)C)c1O"
  melting point: "124 to 125 °C"
- molecule: "CC1Sc2nccn2C1(C)C(O)CCc1ccco1 (stereo unspecified)"
  melting point: "144 to 145 °C"
- molecule: "NS(=O)(=O)c1ccc(-c2cnn(-c3ccc(F)cc3)c(=O)c2-c2ccc(F)cc2)cc1F"
  melting point: "222 to 224 °C"
- molecule: "N#CC1(c2ccccc2)CCC(O)CC1 (stereo unspecified)"
  melting point: "103 to 111 °C"
- molecule: "CN1C(=O)C2(COc3cc4c(cc32)OCCO4)c2c(Oc3ncccc3C(F)(F)F)cccc21 (stereo unspecified)"
  melting point: "> 250 °C"
- molecule: "COc1ccc(C2C(C(=O)/C=C/c3ccc(OC)c(OC)c3)C(=O)CC(c3ccc(OC)c(OC)c3)C2[N+](=O)[O-])cc1 (stereo unspecified)"
  melting point: "158 to 160 °C"
- molecule: "Cc1cn(-c2ccc(NC(=O)c3ccc(Cl)c(C#Cc4ccc(NC5CC5)nn4)c3)cc2C(F)(F)F)cn1"
  melting point: "150 to 152 °C"
- molecule: "CSC(=O)Cn1c(=O)sc2ccccc21"
  melting point: "146 to 147 °C"
- molecule: "CCc1noc(CC(=O)c2ccccc2)c1C(=O)NC"
  melting point: "134 to 136 °C"
- molecule: "CN(C)C=NC(=O)c1cc2c(cn1)[nH]c1ccccc12"
  melting point: "254 to 257 °C"
- molecule: "Clc1ccc2nc(N3CCN(c4c(Cl)cncc4Cl)CC3)[nH]c2c1"
  melting point: "258 to 260 °C"
